target: 5-hydroxytryptamine receptor 7 (Rattus norvegicus); assay: Displacement of [3H]LSD from rat recombinant 5HT7 receptor expressed in HEK293 cells; format: cell-based
Sequence (P32305 whole entry): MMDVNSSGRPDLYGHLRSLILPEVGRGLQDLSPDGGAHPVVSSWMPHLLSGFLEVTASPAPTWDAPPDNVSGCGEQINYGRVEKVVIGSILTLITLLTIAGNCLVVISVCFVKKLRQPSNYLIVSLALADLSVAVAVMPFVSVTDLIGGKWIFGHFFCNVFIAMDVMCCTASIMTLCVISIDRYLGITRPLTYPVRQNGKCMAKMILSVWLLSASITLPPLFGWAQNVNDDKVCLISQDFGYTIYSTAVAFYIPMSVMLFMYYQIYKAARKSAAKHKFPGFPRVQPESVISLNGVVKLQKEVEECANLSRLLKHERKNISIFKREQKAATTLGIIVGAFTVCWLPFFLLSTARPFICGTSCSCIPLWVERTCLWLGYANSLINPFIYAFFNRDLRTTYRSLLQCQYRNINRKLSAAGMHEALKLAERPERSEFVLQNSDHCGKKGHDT
pKi: −log10 of the molar value.
measured-parameter: pKi

Reference set (3 entries):
INSERT INTO assay_data (compound, test_system, number) VALUES
  ('CNc1ccccc1N1CCN(CCCCCC(=O)NC2CCCc3ccccc32)CC1 (stereo not given)', '5-hydroxytryptamine receptor 7 (Rattus norvegicus)', 7.60),
  ('CCc1ccccc1N1CCN(CCCCCC(=O)NC2CCCc3ccccc32)CC1 (stereo not given)', '5-hydroxytryptamine receptor 7 (Rattus norvegicus)', 8.15),
  ('CCCCc1ccccc1N1CCN(CCCCCC(=O)NC2CCCc3ccccc32)CC1 (stereo not given)', '5-hydroxytryptamine receptor 7 (Rattus norvegicus)', 5.55);

A. CC(C)c1ccccc1N1CCN(CCCCCC(=O)NC2CCCc3ccccc32)CC1 (stereo not given)
B. CC(=O)Nc1ccccc1N1CCN(CCCCCC(=O)NC2CCCc3ccccc32)CC1 (stereo not given)
C. CS(=O)(=O)Nc1ccccc1N1CCN(CCCCCC(=O)NC2CCCc3ccccc32)CC1 (stereo not given)
D. O=C(CCCCCN1CCN(c2ccccc2-c2ccccc2)CC1)NC1CCCc2ccccc21 (stereo not given)
E. CCCc1ccccc1N1CCN(CCCCCC(=O)NC2CCCc3ccccc32)CC1 (stereo not given)
Task item: Order the items by recorded pKi; the first position goes to the largest value. List labels; respect the requested ordering.
Reply: D, A, E, B, C
(D: 9.89, A: 8.96, E: 7.30, B: 6.47, C: 5.37)

---

target: 5-hydroxytryptamine receptor 1A (Homo sapiens); test: Displacement of [3H]8-OH-DPAT from human recombinant 5HT1A receptor expressed in HEK293 cells
Sequence (P08908 whole entry): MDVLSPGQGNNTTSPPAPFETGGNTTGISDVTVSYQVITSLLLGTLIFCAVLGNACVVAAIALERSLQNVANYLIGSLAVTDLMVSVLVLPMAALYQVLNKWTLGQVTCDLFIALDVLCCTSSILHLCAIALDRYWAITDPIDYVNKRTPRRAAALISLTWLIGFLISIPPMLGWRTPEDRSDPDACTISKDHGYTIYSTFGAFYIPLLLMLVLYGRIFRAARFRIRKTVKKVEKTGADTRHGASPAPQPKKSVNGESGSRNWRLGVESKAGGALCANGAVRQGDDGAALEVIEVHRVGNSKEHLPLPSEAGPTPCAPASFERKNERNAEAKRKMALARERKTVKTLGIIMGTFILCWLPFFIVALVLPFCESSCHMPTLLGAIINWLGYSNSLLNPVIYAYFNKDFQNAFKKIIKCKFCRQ
pKi: −log10 of the molar value.
measured-parameter: pKi

INSERT INTO assay_data (compound, measured_parameter, number) VALUES
  ('CCCc1ccccc1N1CCN(CCCCCC(=O)NC2CCCc3ccccc32)CC1 (stereo not drawn)', 'pKi', 6.77),
  ('CC(C)c1ccccc1N1CCN(CCCCCC(=O)NC2CCCc3ccccc32)CC1 (stereo not drawn)', 'pKi', 6.78),
  ('CNc1ccccc1N1CCN(CCCCCC(=O)NC2CCCc3ccccc32)CC1 (stereo not drawn)', 'pKi', 6.88);

---

target: D(2) dopamine receptor (Homo sapiens, UniProt P14416); assay: Displacement of [3H]spiroperidol from human recombinant Dopamine D2 long receptor
Sequence (P14416 whole entry): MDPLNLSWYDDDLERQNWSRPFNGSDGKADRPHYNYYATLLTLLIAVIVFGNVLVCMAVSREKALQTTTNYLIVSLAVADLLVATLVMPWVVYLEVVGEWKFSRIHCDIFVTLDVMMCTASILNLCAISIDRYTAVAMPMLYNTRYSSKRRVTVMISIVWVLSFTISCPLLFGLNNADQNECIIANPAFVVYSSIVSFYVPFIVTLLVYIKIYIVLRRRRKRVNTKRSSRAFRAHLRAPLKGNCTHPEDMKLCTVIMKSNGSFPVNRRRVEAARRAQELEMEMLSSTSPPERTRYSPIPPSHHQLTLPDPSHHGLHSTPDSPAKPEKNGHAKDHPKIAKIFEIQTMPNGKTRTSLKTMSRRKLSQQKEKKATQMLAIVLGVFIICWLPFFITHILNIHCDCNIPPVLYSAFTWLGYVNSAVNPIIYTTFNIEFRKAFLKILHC
pKi: −log10 of the molar value.
The reader will find reported pKi values listed item by item below.

Previously resolved entries follow.
INSERT INTO assay_data (molecule, measured_parameter, result) VALUES
  ('CC(=O)Nc1ccccc1N1CCN(CCCCCC(=O)NC2CCCc3ccccc32)CC1 (stereo not given)', 'pKi', '< 6.00'),
  ('O=C(CCCCCN1CCN(c2ccccn2)CC1)NC1CCCc2ccccc21 (stereo not given)', 'pKi', '< 6.00');

Task item: Please report the recorded pKi for CC(C)c1ccccc1N1CCN(CCCCCC(=O)NC2CCCc3ccccc32)CC1 (stereo not given) .
Reply: 7.82

Task item: Using the record for CS(=O)(=O)Nc1ccccc1N1CCN(CCCCCC(=O)NC2CCCc3ccccc32)CC1 (stereo not given) , report its pKi.
Reply: < 6.00

Task item: Which value of pKi has been reported for NC(=O)c1ccccc1N1CCN(CCCCCC(=O)NC2CCCc3ccccc32)CC1 (stereo not given) in the records?
Reply: < 6.00
